- Target desc: Equilibrative nucleoside transporter 1 (Homo sapiens, UniProt Q99808)
- Sequence (Q99808 whole entry): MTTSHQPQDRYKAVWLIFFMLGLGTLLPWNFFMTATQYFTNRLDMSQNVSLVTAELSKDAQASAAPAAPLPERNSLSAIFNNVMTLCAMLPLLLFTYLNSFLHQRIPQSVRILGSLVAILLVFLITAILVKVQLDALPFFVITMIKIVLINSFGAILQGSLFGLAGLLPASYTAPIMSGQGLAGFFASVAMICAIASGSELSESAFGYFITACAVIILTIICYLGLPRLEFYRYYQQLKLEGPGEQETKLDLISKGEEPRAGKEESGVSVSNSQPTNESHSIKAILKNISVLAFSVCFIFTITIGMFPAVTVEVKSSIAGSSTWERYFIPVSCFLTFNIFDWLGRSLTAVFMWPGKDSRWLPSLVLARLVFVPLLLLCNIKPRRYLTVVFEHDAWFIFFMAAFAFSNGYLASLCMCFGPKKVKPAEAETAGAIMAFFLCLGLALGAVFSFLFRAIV
- Assay remarks: Inhibition of [3H]NBTI binding to equilibrative nucleoside transport protein 1 (ENT1) in human erythrocyte membranes
- Type: cell membranes
Reported property: pKi
Please express pKi as -log10 of the molar concentration.

{"Compound": "CNc1nc2c(SCc3ccccc3)ncnc2n1C1O[C@H](CO)[C@@H](O)[C@H]1O (stereo partly specified)", "Measured value": 7.55}
{"Compound": "OC[C@H]1O[C@@H](n2cnc3c(SCc4ccccc4)ncnc32)[C@H](O)[C@@H]1O", "Measured value": 7.28}

Challenge: For OC[C@H]1OC(n2c(NC3CC3)nc3c(SCc4ccccc4)ncnc32)[C@H](O)[C@@H]1O (stereo partly specified) , write its pKi.
Response given: 8.52

###

- Target desc: Equilibrative nucleoside transporter 1 (Homo sapiens)
- Assay remarks: Inhibition of [3H]NBTI binding to equilibrative nucleoside transport protein 1 (ENT1) in human erythrocyte membranes
- Type: cell membranes
Reported property: Ki (nM)
Write it as a number; the unit nM goes unstated.

{"Compound": "CCCCCCNc1nc2c(SCc3ccccc3)ncnc2n1C1O[C@H](CO)[C@@H](O)[C@H]1O (stereo partly drawn)", "Unit string": "nM", "Measured value": 3.7}
{"Compound": "CCCCNc1nc2c(SCc3ccccc3)ncnc2n1C1O[C@H](CO)[C@@H](O)[C@H]1O (stereo partly drawn)", "Unit string": "nM", "Measured value": 5.4}

Consider the record given below.
Challenge: For `OC[C@H]1O[C@@H](n2cnc3c(NC4CCCC4)ncnc32)[C@H](O)[C@@H]1O` , write its Ki.
Response given: 1100
